Molecular target: T1, PUF4 RNA-binding domain (Saccharomyces cerevisiae, UniProt P25339 537-888)
T1 sequence: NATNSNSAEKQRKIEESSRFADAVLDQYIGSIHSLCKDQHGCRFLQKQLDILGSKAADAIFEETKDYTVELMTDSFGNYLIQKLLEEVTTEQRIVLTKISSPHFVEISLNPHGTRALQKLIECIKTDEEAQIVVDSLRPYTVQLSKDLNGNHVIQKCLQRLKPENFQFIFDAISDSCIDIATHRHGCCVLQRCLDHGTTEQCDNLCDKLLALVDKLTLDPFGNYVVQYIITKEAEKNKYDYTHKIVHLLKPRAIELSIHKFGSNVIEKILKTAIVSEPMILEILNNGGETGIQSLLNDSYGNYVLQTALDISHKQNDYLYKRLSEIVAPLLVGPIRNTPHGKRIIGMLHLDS
Assay: Mg; RNA-MaP; 20 mM Na-HEPES pH 7.4, 30 mM KOAc, 0.75 mM MgCl2, 0.1% Tween-20, 5% glycerol, 0.1 mg/mL BSA, 2 mM DTT; 25 C; 0.0125-409.6 nM protein
Conditions: tags: N-His6-TEV cleaved; C-SNAP kept, Cy3B-labelled; label: tethered on chip by stalled RNA polymerase
metric: log10 of Kd (log10 of the value in nM)
Scale: decimal log of Kd, Kd in nM.

Q. Look up log10 of Kd: Id_ii_S4_P4E.2_K4.1_C4.2_H4.1_A4.1_F4.1_T4.2_[G10C] (ssRNA) RNA: UUUGACAACUGAUCGUUCUUUCUCUUGUAUAUUACUUUCUUUCUCGAUCAGUUGUCUUU
A. -0.36

Q. Thanks! And Id_ii_S4_P4E.3_K4.2_C4.2_[C-2T]_[T-1C]_H4.2_A4.1_F4.1_T4.2_[G10A] (ssRNA) RNA: UUUGACAACUGAUCGUUCUUUCUUCUAUAUAUUAAUUUCUUUCUCGAUCAGUUGUCUUU ?
A. 1.01

Q. Thanks! And UCUCUUCAUGUAUAUAAAUCUCUU (ssRNA) [Id_ii_S1_P3E.2_K3.1_C3.2_[T-1A]_H3.1_A3.1_F3.1_T3.2_[T9A]] ?
A. 1.12

Q. Thanks! And UCUCUUAUUAUAUAUACCUCUCUU (ssRNA) [Id_ii_S1_P3E.3_K3.2_C3.2_[C-2A]_H3.2_A3.1_F3.1_T3.2_[T9C]_[A10C]] ?
A. 3.36

Q. Thanks! And Ic_S4_P4E.1_K4.1_C4.1_H4.1_A4.1_[T5C]_[A6T]_[T7C]_F4.1_[T8C]_[A9G]_T4.1 (ssRNA) RNA: UUUGACAACUGAUCGUUCUUUCUUGUACUCCGUUCUUUCUCGAUCAGUUGUCUUU ?
A. 2.74

Q. Thanks! And Id_ii_S4_P3E.3_K3.2_C3.2_[C-2A]_H3.2_A3.1_F3.1_T3.2 (ssRNA) RNA: UUUGACAACUGAUCGUUCUUUCUAUUAUAUAUAUAUUCUUUCUCGAUCAGUUGUCUUU ?
A. 2.78
